test: cytotoxicity in HPDE-C7 cells, cell-based, fluorescence, HTS (AID 430); details: HPDE-C7 pancreatic duct cells viability, at 10 µM, active compounds read high;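 further: cells exposed to compound for 48 hours before viability readout; 0% = vehicle and 100% = reference cytotoxic drug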
In all, about 63,000 compounds went through this assay and about 1,100 (1.7%) were called active. Many of the other results were omitted from the sample, so actives are more common in it than they were. Entries with a potency or affinity are not part of this list.
For each of the compounds below, state its cytotoxicity.
Numbers only, in %.

Record excerpt, results attached:
compound="CC1=C(C(=O)NCc2ccccc2)C(c2ccc(C)o2)n2ncnc2N1 (centres undefined)" obs_value=-15
compound="COC(=O)C1CCN(C(=O)C(C)Oc2ccc(Cl)cc2Cl)CC1 (centres undefined)" obs_value=-16.4

# map each compound to its cytotoxicity
1. CCSc1nc(C)c(CC)c(C)c1C(N)=O
2. CCOc1cc(NC(=O)c2ccco2)c(OCC)cc1NC(=O)Cc1cccc(OC)c1
3. CCOc1cccc2c1OC1(C)CC2NC(=O)N1c1cccc(F)c1 (centres undefined)
4. CCOC(=O)c1sc(NC(=O)c2c(C)nn(Cc3ccccc3)c2C)cc1C
5. CC(C)OC(=O)c1cn(-c2ccccc2)nc1-c1ccco1
6. CCOC(=O)c1sc(NC(=O)c2cccs2)cc1C
7. N#Cc1c(/N=C/N2CCCC2)oc(-c2ccccc2)c1-c1ccccc1

## Result
1. 1.9
2. -10.3
3. -12.1
4. 72.7
5. 4.8
6. -16.1
7. 13.1

# map each compound to its cytotoxicity
1. CCOC(=O)CNS(=O)(=O)CCN1C(=O)c2ccccc2C1=O
2. CCOC(=O)c1c(C)nn(Cc2ccccc2)c1N
3. CCCc1[nH]nc2c1C(c1ccc(OC)cc1OC)C(C#N)=C(N)O2 (centres undefined)
4. COc1ccc2c(c1)Sc1ccccc1N2CCN(C)C
5. Cc1ccc(S(=O)(=O)N(CCC#N)CCN2CCCC2)cc1
6. COC(=O)c1nc2nc(C)cc(C(F)(F)F)n2n1
7. N#Cc1c(/N=C/c2ccco2)oc(-c2ccccc2)c1-c1ccccc1
8. Cc1ccc(NCc2nnc(SCC(=O)Nc3cccc(O)c3)n2CC2CCCO2)c(C)c1 (centres undefined)

## Result
-14.2
-1.6
-5
12.2
-4.9
-8.4
70
8.8

# map each compound to its cytotoxicity
1. N#Cc1c(N)oc(-c2ccccc2)c1-c1ccccc1
2. O=C(Nc1ccc(-c2nc3ccccc3o2)cc1)C1CCCO1 (centres undefined)
3. CSc1ccc(/C=N/n2nnnc2N)cc1
4. N#C/C(C(N)=O)=c1/ccc2c(c1)N1C3=C(CCCC3)CC3CCCCC31N=2 (centres undefined)
5. CCCC1=C(C(=O)OCC)C(c2ccccc2OC)NC(=O)N1 (centres undefined)
6. CCc1ccc(S(=O)(=O)NCc2csc(-c3cccnc3)n2)s1
7. c1ccc2[nH]c(CN3CCN(c4ncnc5c4oc4ccccc45)CC3)nc2c1

## Result
1. -7.1
2. 2.5
3. -10.4
4. 77.9
5. -16.5
6. -5
7. -2.8

* * *

experiment: cytotoxicity in HPDE-C7 cells, cell-based, fluorescence, HTS (AID 430); settings: HPDE-C7 pancreatic duct cells viability, at 10 µM;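 further: cells exposed to compound for 48 hours before viability readout; 0% = vehicle and 100% = reference cytotoxic drug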
Among all 63,000 compounds or so, about 1,100 (1.7%) were called active. No stated cut-off is given here; in the data, active means cytotoxicity above about 50%; inactive means the rest. Shown is part of a subset that was picked to be rich in actives. Entries with a potency or affinity are not part of this list.
Hi! Could you answer with just one of these? yes (1) (active), no (0) (inactive)

Would you please look over these solved cases?
molecule=CCCCOc1ccc(C(=O)NC)cc1 discrete_label="no (0)"
molecule=O=C(Cn1cc2c(n1)CCCC2)NCCc1ccccc1 discrete_label="no (0)"

## Task Recorded test outcome, item `CCCn1c(SCC(=O)Nc2ccc3c(c2)OCO3)nc2c1c(=O)n(C)c(=O)n2C`
## Result no (0)

## Task Recorded test outcome, item `Cc1ccc(SC/C(O)=C(\C#N)c2nc3ccccc3n2C)cc1`
## Result no (0)

## Task Recorded test outcome, item `CCCCOc1ccc(C(=O)N2CCC(C)CC2)cc1`
## Result no (0)

## Task Recorded test outcome, item `c1ccc2c(c1)Cn1nnnc1-2`
## Result no (0)

## Task Recorded test outcome, item CCCCOc1ccc(C(=O)OC2CC(C)N(C)CC2C)cc1 (configuration not stated)
## Result yes (1)
